Test system: primary cultured neonatal microglia
Assay: LPS induced NO release, Griess assay, laboratory scaled setup;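 as to active: compounds at or above the IC50 cutoff were called inactive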
Format: cell-based, mouse
Conditions: Mus musculus, Microglia, inhibitors of NO production, murine primary cultured neonatal microglia; read-out: active
Procedure: Primary cultured neonatal microglia. For preparation of cultured neonatal microglia, P0-P3 mice were used. 10 brains were extracted, meninges and cerebellum were removed and put on ice with Hank's balanced salt solution (HBSS). […] Griess assay. […] The solution was carefully mixed and the absorbance was determined in a microplate reader at a wavelength of 550 nm. Dissolved sodium nitrite in plain medium served as a standard. Total amount of nitrite was calculated by a linear regression of the standard curve. […]
pIC50: −log10 of the molar value.
propertyName: pIC50

lineNotation	pIC50
COc1ccc(NC(=O)[C@@H](NC(=O)[C@@H]2CCCN2CCCc2ccccc2)c2ccc(OC)cc2)cc1	≤ 5.00
COc1ccc([C@H](NC(=O)[C@@H]2CCCN2C(=O)OCc2ccccc2)C(=O)Nc2cccnc2)cc1	≤ 5.00
COc1ccc([C@H](NC(=O)[C@@H]2CCCN2C(=O)OCc2ccccc2)C(=O)Nc2cnn(C)c2)cc1	≤ 5.00
COc1ccc(NC(=O)[C@@H](NC(=O)[C@@H]2CCCN2C(=O)CCCCCNC(=O)CCCC[C@@H]2SC[C@@H]3NC(=O)N[C@@H]32)c2ccc(OC)cc2)cc1	≤ 5.00
COc1ccc([C@H](NC(=O)[C@@H]2CCCN2C(=O)OCc2ccccc2)C(=O)Nc2cccc3c2ccn3C)cc1	≤ 5.00
COc1ccc([C@H](NC(=O)[C@@H]2CCCN2C(=O)OCc2ccccc2)C(=O)Nc2ccccc2)cc1	≤ 5.00

Notebook entry, primary cultured neonatal microglia assay: pIC50 of COc1ccc(NC(=O)[C@H](NC(=O)[C@@H]2CCCN2C(=O)OCc2ccccc2)c2ccc(OC)cc2)cc1 = ?
≤ 5.00

---

Tested on: primary cultured neonatal microglia
Assay: LPS induced NO release, Griess assay, laboratory scaled setup
Format: cell-based, mouse
Details: Mus musculus, Microglia, inhibitors of NO production, murine primary cultured neonatal microglia; read-out: activity class (IC50)
Recorded measurements of IC50, one per entry

// IC50 lookup, key: COc1ccc(NC(=O)[C@@H](NC(=O)[C@@H]2Cc3ccccc3CN2C(=O)OCc2ccccc2)c2ccc(OC)cc2)cc1
< 10 µM

// IC50 lookup, key: COc1ccc(NC(=O)[C@@H](NC(=O)[C@@H]2C[C@@H]3CCCC[C@@H]3N2C(=O)OCc2ccccc2)c2ccc(OC)cc2)cc1
< 10 µM

// IC50 lookup, key: COc1ccc(NC(=O)[C@@H](NC(=O)[C@@H]2CCCN2C(=O)CCc2cccs2)c2ccc(OC)cc2)cc1
< 0.2 µM

---

Assay: Intravenous pharmacokinetic study in mice (blood plasma)
Settings: male, CD-1, mouse, plasma, intravenous, 5 mg/kg, concentration in blood plasma, 24 hours after 5 mg/kg intravenous, CD-1 male mice
propertyName: concentration at 24 h (nM)
Write the number in nM without appending the unit.

// concentration at 24 h lookup, key: COc1ccc(NC(=O)C(NC(=O)C2CCCN2C(=O)OCc2ccccc2)c2ccc(OC)cc2)cc1 (stereo not shown)
1.26

---

Tested on: primary cultured neonatal microglia
Experiment: LPS induced NO release, Griess assay, laboratory scaled setup
Type: cell-based, mouse
Settings: Mus musculus, Microglia, 96 well plate; 1 h C1, then 1 μg/ml LPS 48 h; 2 nM to 20 μM; read-out: IC50, LPS induced NO release
propertyName: pIC50
Keep in mind that pIC50 stands for -log10 of concentration in molar terms.

// pIC50 lookup, key: COc1ccc(NC(=O)C(NC(=O)C2CCCN2C(=O)OCc2ccccc2)c2ccc(OC)cc2)cc1 (stereo not shown)
6.60

// data source = patent US20240025849A1
